System: wild oat (Avena fatua)
Assay: Test C pre-/postemergence: wild oat
Type: in vivo
Conditions: Postemergence, 62 g ai/ha; scale 0 to 100 (0 no effect, 100 complete control)
Text: […] Treated plants and controls were maintained in a greenhouse for 13 to 15 days, after which time all species were compared to controls and visually evaluated. […]
Quantity: Plant response rating, Oat, Wild
# print the numeric value only

# Molecule, Plant response rating, Oat, Wild
rows = [
    ("CCCc1nn(-c2ccc(F)cc2)nc1Oc1ccnc(C(F)(F)F)c1 [Compound 168]", 45),
    ("Cc1nn(-c2ccc(C(F)(F)F)cn2)nc1Cc1cccc(C(F)(F)F)c1 [Compound 106]", 30),
    ("FC(F)Oc1nn(-c2ccc(C(F)(F)F)cc2)nc1Cc1ccnc(C(F)(F)F)c1 [Compound 26]", 30),
    ("FCc1nn(-c2ccc(F)cc2)nc1Oc1ccnc(C(F)(F)F)c1 [Compound 160]", 45),
    ("CCCc1nn(-c2ccc(F)c(F)c2)nc1Oc1ccnc(C(F)(F)F)c1 [Compound 172]", 20),
]

# next molecule below
stdin: Tell us which Plant response rating, Oat, Wild value is on record for CCc1nn(-c2ccc(F)cc2)nc1Cc1ccnc(C(F)(F)F)c1 [Compound 154]
stdout: 35

* * *

test system: barnyardgrass (Echinochloa crus-galli); assay: Test C flooded paddy test: barnyardgrass; assay type: in vivo; conditions: Flood (flooded paddy test), 250 g ai/ha; visual rating after 13 to 15 days, scale 0 to 100 (0 no effect, 100 complete control)
Quantity: Plant response rating, Barnyardgrass
# print the numeric value only

# Structure smiles string, Plant response rating, Barnyardgrass
measured = [
    ("Cc1nn(-c2cccc(C(F)(F)F)c2)nc1Oc1cc(C(F)(F)F)nn1C", 0),
]

stdin: Fill in: Plant response rating, Barnyardgrass on barnyardgrass (Echinochloa crus-galli), entry Cc1nn(-c2ccc(C(F)(F)F)cc2)nc1Sc1cccc(C(F)(F)F)c1
stdout: 0

stdin: Fill in: Plant response rating, Barnyardgrass on barnyardgrass (Echinochloa crus-galli), entry Cc1nn(-c2ccc(C(F)(F)F)cc2)nc1Oc1cccc(OC(F)(F)F)c1
stdout: 30

* * *

tested on: soybean (Glycine max); test: Test C pre-/postemergence: soybean; format: in vivo; conditions: Postemergence, 250 g ai/ha; scale 0 to 100
Quantity: Plant response rating, Soybean
# print the numeric value only

Examples with their reported Plant response rating, Soybean follow.
# Structure smiles string, Experimental system, Plant response rating, Soybean
records = [
    ("Cc1nn(-c2ccc(C(F)(F)F)cn2)nc1Cc1cccc(C(F)(F)F)c1", "soybean (Glycine max)", 65),
    ("COc1nn(-c2cccc(F)c2)nc1Cc1ccnc(C(F)(F)F)c1", "soybean (Glycine max)", 45),
    ("FC(F)Oc1nn(-c2ccc(C(F)(F)F)cc2)nc1Cc1ccnc(C(F)(F)F)c1", "soybean (Glycine max)", 55),
    ("Fc1ccc(-n2nc(Cc3ccnc(C(F)(F)F)c3)c(OC(F)F)n2)cc1", "soybean (Glycine max)", 30),
    ("CCc1nn(-c2ccc(F)cc2)nc1Cc1ccnc(C(F)(F)F)c1", "soybean (Glycine max)", 75),
]

# next molecule below
stdin: Tell us which Plant response rating, Soybean value is on record for CCc1nn(-c2ccc(C(F)(F)F)cc2)nc1Cc1ccnc(C(F)(F)F)c1
stdout: 80

* * *

Below, each entry is listed alongside its reported Plant response rating, Surinam Grass.
system: surinam grass (Brachiaria decumbens); experiment: Test C pre-/postemergence: surinam grass; format: in vivo; conditions: Preemergence, 31 g ai/ha; scale of 0 to 100, 0 is no effect, 100 is complete control

Examples with their reported Plant response rating, Surinam Grass follow.
# Structure smiles string, Plant response rating, Surinam Grass
data = [
    ("FC(F)Oc1nn(-c2ccc(C(F)(F)F)cc2)nc1Cc1ccnc(C(F)(F)F)c1", 10),
    ("Cc1nn(-c2ccc(F)cc2F)nc1Oc1ccnc(C(F)(F)F)c1", 10),
    ("COc1nn(-c2cccc(F)c2)nc1Cc1ccnc(C(F)(F)F)c1", 15),
]

stdin: Fill in: Plant response rating, Surinam Grass on surinam grass (Brachiaria decumbens), entry COc1nn(-c2ccc(C(F)(F)F)cc2)nc1Cc1ccnc(C(F)F)c1
stdout: 55

stdin: Fill in: Plant response rating, Surinam Grass on surinam grass (Brachiaria decumbens), entry Cc1nn(-c2ccc(C(F)(F)F)cn2)nc1Oc1ccnc(C(F)(F)F)c1
stdout: 15

* * *

system: corn (Zea mays); assay: Test A pre-/postemergence: corn; format: in vivo; settings: Postemergence, 500 g ai/ha; 0 to 100 scale, 0 is no effect, 100 is complete control
Quantity: Corn plant response rating
# print the numeric value only

Examples with their reported Corn plant response rating follow.
# Compound, Corn plant response rating
measured = [
    ("CCOc1nn(-c2ccc(F)cc2)nc1C(=O)c1ccnc(C(F)(F)F)c1 [Compound 177]", 30),
    ("CC(C)(C)c1nn(-c2ccc(F)cc2)nc1Cc1ccnc(C(F)(F)F)c1 [Compound 176]", 0),
    ("CCCc1nn(-c2ccc(F)cc2F)nc1Oc1ccnc(C(F)(F)F)c1 [Compound 179]", 30),
    ("CCOc1nn(-c2ccc(Cl)cc2)nc1Cc1ccnc(C(F)(F)F)c1 [Compound 188]", 50),
]

stdin: Tell us which Corn plant response rating value is on record for CCCc1nn(-c2ccc(C(F)(F)F)cc2)nc1Oc1ccnc(C(F)(F)F)c1 [Compound 170]
stdout: 50

stdin: Tell us which Corn plant response rating value is on record for CCCc1nn(-c2ccc(F)cc2)nc1Oc1ccnc(C(F)(F)F)c1 [Compound 168]
stdout: 50

stdin: Tell us which Corn plant response rating value is on record for FC(F)(F)c1cccc(-n2nc(Oc3ccnc(C(F)(F)F)c3)c(C3CC3)n2)c1 [Compound 199]
stdout: 20

* * *

Below, each entry is listed alongside its reported Barnyardgrass plant response rating.
system: barnyardgrass (Echinochloa crus-galli); assay: Test A pre-/postemergence: barnyardgrass; assay type: in vivo; settings: Postemergence, 125 g ai/ha; 0 to 100 scale, 0 is no effect, 100 is complete control
# print the numeric value only

# Molecule, Experimental system, Meas value
records = [
    ("Cc1nn(-c2nc(Cl)ns2)nc1C(=O)c1cccc(C(F)(F)F)c1 [Compound 59]", "barnyardgrass (Echinochloa crus-galli)", 0),
    ("Cc1nn(-c2cccc(C(F)(F)F)c2)nc1Oc1cc(C(F)(F)F)nn1C [Compound 64]", "barnyardgrass (Echinochloa crus-galli)", 0),
    ("CCc1nn(-c2ccc(C(F)(F)F)cc2)nc1Cn1cnc(C(F)(F)F)c1Cl [Compound 121]", "barnyardgrass (Echinochloa crus-galli)", 0),
]

stdin: Tell us which Barnyardgrass plant response rating value is on record for Cc1nn(-c2ccc(C(F)F)cn2)nc1C(=O)c1cccc(C(F)(F)F)c1 [Compound 68]
stdout: 0

stdin: Tell us which Barnyardgrass plant response rating value is on record for Cc1nn(-c2ccccn2)nc1C(=O)c1cccc(C(F)(F)F)c1 [Compound 60]
stdout: 0

stdin: Tell us which Barnyardgrass plant response rating value is on record for Cc1cc(Oc2nn(-c3ccc(F)cc3)nc2C)ccn1 [Compound 135]
stdout: 0

stdin: Tell us which Barnyardgrass plant response rating value is on record for Cc1nn(-c2ccc(C(F)(F)F)cc2)nc1Oc1cccc(OC(F)(F)F)c1 [Compound 119]
stdout: 10

stdin: Tell us which Barnyardgrass plant response rating value is on record for COc1nn(-c2cccc(F)c2)nc1Cc1ccnc(C(F)(F)F)c1 [Compound 139]
stdout: 90

stdin: Tell us which Barnyardgrass plant response rating value is on record for Cc1nn(-c2ccc(C(F)(F)F)cc2)nc1Oc1cc(C(F)(F)F)nn1C [Compound 104]
stdout: 20

* * *

system: blackgrass (Alopecurus myosuroides); experiment: Test C pre-/postemergence: blackgrass; type: in vivo; settings: Preemergence, 250 g ai/ha; scale 0 to 100, 0 no effect, 100 complete control
Quantity: Plant response rating, Blackgrass
# print the numeric value only

Examples with their reported Plant response rating, Blackgrass follow.
# Compound, Experimental system, Plant response rating, Blackgrass
data = [
    ("CCOc1nn(-c2ccc(F)cc2)nc1Cc1ccnc(C(F)(F)F)c1 [Compound 196]", "blackgrass (Alopecurus myosuroides)", 90),
    ("Cc1nn(-c2ccc(C(F)(F)F)cc2)nc1Oc1ccnc(C(F)(F)F)c1 [Compound 120]", "blackgrass (Alopecurus myosuroides)", 90),
    ("CCc1nn(-c2ccc(F)cc2)nc1Cc1ccnc(C(F)(F)F)c1 [Compound 154]", "blackgrass (Alopecurus myosuroides)", 90),
    ("CCc1nn(-c2ccc(C(F)(F)F)cc2)nc1Cc1ccnc(C(F)(F)F)c1 [Compound 155]", "blackgrass (Alopecurus myosuroides)", 90),
]

stdin: Tell us which Plant response rating, Blackgrass value is on record for CCCc1nn(-c2ccc(F)c(F)c2)nc1Oc1ccnc(C(F)(F)F)c1 [Compound 172]
stdout: 95

stdin: Tell us which Plant response rating, Blackgrass value is on record for FC(F)(F)COc1nn(-c2ccc(C(F)(F)F)cc2)nc1Cc1ccnc(C(F)(F)F)c1 [Compound 14]
stdout: 98

stdin: Tell us which Plant response rating, Blackgrass value is on record for COc1nn(-c2cccc(F)c2)nc1Cc1ccnc(C(F)(F)F)c1 [Compound 139]
stdout: 90

stdin: Tell us which Plant response rating, Blackgrass value is on record for CCc1nn(-c2ccc(C(F)(F)F)cc2)nc1Oc1ccnc(C(F)(F)F)c1 [Compound 169]
stdout: 95

stdin: Tell us which Plant response rating, Blackgrass value is on record for CCc1nn(-c2ccc(C(F)(F)F)c(F)c2)nc1Oc1ccnc(C(F)(F)F)c1 [Compound 183]
stdout: 100

stdin: Tell us which Plant response rating, Blackgrass value is on record for CCOc1nn(-c2ccc(C(F)(F)F)cc2)nc1Cc1ccnc(C(F)(F)F)c1 [Compound 164]
stdout: 70

stdin: Tell us which Plant response rating, Blackgrass value is on record for Cc1nn(-c2ccc(C(F)(F)F)cn2)nc1Cc1cccc(C(F)(F)F)c1 [Compound 106]
stdout: 95

stdin: Tell us which Plant response rating, Blackgrass value is on record for Cc1nn(-c2ccc(F)cc2F)nc1Oc1ccnc(C(F)(F)F)c1 [Compound 146]
stdout: 90

Values were extracted from patent US9302999B2.
